test: In vivo GBM rat model: haematology; conditions: GBM rats, 30 mg/kg oral, 5 days, blood at necropsy
Collected MCH values appear next to each entry.
I only need the number, in pg, no unit after it.

compound	unit-of-measurement	endpoint-value
O=C(COc1ccc2c(c1)CCC(=O)N2)N/N=C/c1cnc(-c2ccc(Cl)cc2)nc1	pg	18.51
COc1cc(NC(=O)COc2ccc3c(c2)CCC(=O)N3)cc(OC)c1	pg	17.90

Using known records, supply MCH for CC(C)CCOc1ccc2c(c1)CCC(=O)N2
18.43

Supply measured MCH of C=Cc1ccc(COc2ccc3c(c2)CCC(=O)N3)cc1 in your reply.
17.83

Tell me MCH reported for C=CCOC(=O)COc1ccc2c(c1)CCC(=O)N2
17.65

Give a short answer stating reported MCH for Cn1nnc2c(C(N)=O)ncn2c1=O [TMZ, Temozolomide, reference compound] .
18.10

Report MCH for O=C1CCc2cc(OS(=O)(=O)c3cccc4ccccc34)ccc2N1
18.46

---

assay: In vivo GBM rat model: haematology; conditions: GBM rats, 30 mg/kg oral, 5 days, blood at necropsy
Listing of entries alongside the reported PLT.

Examples from the recorded data:
compound	PLT
C=CCOC(=O)COc1ccc2c(c1)CCC(=O)N2 [TR-G071]	823.00 10^9 /L
COc1cc(NC(=O)COc2ccc3c(c2)CCC(=O)N3)cc(OC)c1 [TR-G091]	744.50 10^9 /L
CC(C)CCOc1ccc2c(c1)CCC(=O)N2 [TR-G002]	805.75 10^9 /L
Cn1nnc2c(C(N)=O)ncn2c1=O [TMZ, Temozolomide, reference compound]	829.67 10^9 /L
C=Cc1ccc(COc2ccc3c(c2)CCC(=O)N3)cc1 [TR-G053]	823.33 10^9 /L
O=C1CCc2cc(OS(=O)(=O)c3cccc4ccccc34)ccc2N1 [TR-G045]	845.60 10^9 /L

Provide one value: measured PLT of O=C(COc1ccc2c(c1)CCC(=O)N2)N/N=C/c1cnc(-c2ccc(Cl)cc2)nc1 [TR-G066]
799.14 10^9 /L

---

assay: In vivo GBM rat model: plasma chemistry; conditions: GBM rats, 30 mg/kg oral, 5 days, plasma at necropsy
quantity-measured: LDL C (mmol/L)
Supply the numeric figure in mmol/L, leaving out any unit text.

Solved cases below.
compound	quantity-measured	unit-of-measurement	endpoint-value
C=Cc1ccc(COc2ccc3c(c2)CCC(=O)N3)cc1	LDL C	mmol/L	5.63
O=C(COc1ccc2c(c1)CCC(=O)N2)N/N=C/c1cnc(-c2ccc(Cl)cc2)nc1	LDL C	mmol/L	4.94
C=CCOC(=O)COc1ccc2c(c1)CCC(=O)N2	LDL C	mmol/L	5.65
CC(C)CCOc1ccc2c(c1)CCC(=O)N2	LDL C	mmol/L	4.42
COc1cc(NC(=O)COc2ccc3c(c2)CCC(=O)N3)cc(OC)c1	LDL C	mmol/L	5.03
O=C1CCc2cc(OS(=O)(=O)c3cccc4ccccc34)ccc2N1	LDL C	mmol/L	5.28

Report LDL C for Cn1nnc2c(C(N)=O)ncn2c1=O [TMZ, Temozolomide, reference compound]
5.12

---

assay: In vivo GBM rat model: plasma chemistry; details: GBM rats, 30 mg/kg oral, 5 days, plasma at necropsy
quantity-measured: ALP (IU/L)
Reply with just the number (in IU/L).

molecule	unit-of-measurement	ALP
C=Cc1ccc(COc2ccc3c(c2)CCC(=O)N3)cc1	IU/L	125.67
Cn1nnc2c(C(N)=O)ncn2c1=O [TMZ, Temozolomide, reference compound]	IU/L	128.7
O=C(COc1ccc2c(c1)CCC(=O)N2)N/N=C/c1cnc(-c2ccc(Cl)cc2)nc1	IU/L	137.08
O=C1CCc2cc(OS(=O)(=O)c3cccc4ccccc34)ccc2N1	IU/L	138.47
C=CCOC(=O)COc1ccc2c(c1)CCC(=O)N2	IU/L	130.5
COc1cc(NC(=O)COc2ccc3c(c2)CCC(=O)N3)cc(OC)c1	IU/L	122.87

Continue with the molecule presented below.
Identify ALP associated with the molecule CC(C)CCOc1ccc2c(c1)CCC(=O)N2
124.22
